targetOfAssay: GLP-1 receptor (human, UniProt P43220 24-463)
protocolNotes: cell-based or functional assay
No end group written: not given here.
# % Relative Activity vs native GLP-1 values compiled below

| binder | % Relative Activity vs native GLP-1 (%) |
| --- | --- |
| HSQGTFTSDKSKYLDEQAAKEFICWLLDE-NH2 (not fully specified; also: further groups not given here) [Glucagon Analog 82] | 345 |
| HAQGTFTSDKSKYLDERAAQDFVC(PEG 40 kDa)WLLDT-NH2 (also: other non-coded residues as, not given here) [Glucagon Analog 81] | 300 |
| HSQGTFTSDKSKYLDEQAAKEFICWLLDTE-NH2 (not fully specified; also: further groups not given here) [Glucagon Analog 83] | 288 |
| HSQGTFTSDKSKYLDEQAAKEFIC(PEG 40 kDa)WLLDT-NH2 (not fully specified; also: further groups not given here) [Glucagon Analog 79] | 41 |
| HSQGTFTSDKSKYLDEQAAKEFIC(PEG 40 kDa)WLLDTGG-NH2 (not fully specified; also: further groups not given here) [Glucagon Analog 78] | 196 |

Ref: patent US20120288511A1
